Measured Target: T1, human IL4Rα expressed on 293F-IL4Rα cells (human, UniProt P24394 26-825)
T1 construct: whole, on cells; also called cell surface human IL4Rα
Assay Explanation: flow cytometry on 293F-IL4Rα cells
Quantity Name: EC50 (nM)

INSERT INTO measurements (binder, recorded_measurement) VALUES
  ('mouse antibody B8G11F2B7G5E8 (antibody, V domains shown, Mouse hybridoma mAb; also called Mouse B8G11F2B7G5E8; mAb B8G11F2B7G5E8) VH: EVQLQQSGADLVRPGASVKLSCTASGFNIKDTYMHWVKQRPEQGLEWVGRIDPTNGYTIYASKFQGKATITADTSSNTAYMQLSSLTSGDTAVYHCVSRRPWFAYWGQGTLVTVSA VL: DILMTQTPLSLPVSLGAQASISCRSSQSIVHSNGNTYLEWYLQKPGQSPKLLIYKVTNRFSGVPDRFSGSGSGTDFTLKISRVEAEDLGIYYCFQGSHVPYTFGGGTKLEIK', 0.251);
